Biological target: Recombinant human c-KIT kinase (Homo sapiens (Human), UniProt P10721)
Sequence (P10721 26-976): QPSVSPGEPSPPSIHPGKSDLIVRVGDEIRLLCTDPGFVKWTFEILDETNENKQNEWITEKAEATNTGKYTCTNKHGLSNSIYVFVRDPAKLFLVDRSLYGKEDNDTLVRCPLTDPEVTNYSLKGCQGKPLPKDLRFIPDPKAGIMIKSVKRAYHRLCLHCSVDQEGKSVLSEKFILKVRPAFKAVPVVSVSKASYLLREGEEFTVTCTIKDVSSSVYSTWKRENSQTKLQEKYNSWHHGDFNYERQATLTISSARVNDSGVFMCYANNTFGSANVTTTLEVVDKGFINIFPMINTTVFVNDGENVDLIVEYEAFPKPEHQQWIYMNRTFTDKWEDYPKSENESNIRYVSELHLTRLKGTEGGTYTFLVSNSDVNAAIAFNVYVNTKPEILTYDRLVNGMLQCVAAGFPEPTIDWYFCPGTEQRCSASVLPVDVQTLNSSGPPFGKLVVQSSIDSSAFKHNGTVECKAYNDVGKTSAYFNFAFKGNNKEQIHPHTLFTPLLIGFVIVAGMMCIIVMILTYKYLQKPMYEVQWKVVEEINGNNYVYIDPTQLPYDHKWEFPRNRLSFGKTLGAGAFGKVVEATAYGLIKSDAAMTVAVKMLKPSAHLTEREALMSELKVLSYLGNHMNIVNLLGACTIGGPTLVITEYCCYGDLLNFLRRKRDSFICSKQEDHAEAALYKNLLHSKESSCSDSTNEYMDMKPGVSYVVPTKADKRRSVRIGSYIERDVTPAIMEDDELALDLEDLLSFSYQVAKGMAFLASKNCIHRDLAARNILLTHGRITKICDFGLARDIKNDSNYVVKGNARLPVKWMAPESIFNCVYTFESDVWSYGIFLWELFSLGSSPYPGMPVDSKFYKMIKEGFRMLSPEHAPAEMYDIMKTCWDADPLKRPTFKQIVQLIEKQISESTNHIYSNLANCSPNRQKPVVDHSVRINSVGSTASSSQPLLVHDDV
Assay: c-KIT kinase chemiluminescence assay (ADP-Glo)
Conditions: ATP 50 μM
Give measured IC50 for each item. Keep answers brief.

Any idea what IC50 was measured for `Cc1nnc(N2CC(c3nc(-c4cnc(C)c(NC(=O)c5cnn6ccc(N7CC8(C7)CC(O)(C(F)F)C8)cc56)c4)no3)C2)o1` ?
> 1000 nM

Which value of IC50 has been reported for `Cc1ccc(-c2noc([C@H]3C[C@@H]3F)n2)cc1NC(=O)c1cnn2ccc(-c3nnn(C)n3)cc12` in the records?
100 to 1000 nM

State the recorded IC50 for this entry: `Cc1ccc(-c2noc([C@H]3C[C@@H]3F)n2)cc1NC(=O)c1cnc(-c2ccc3c(cnn3CC(C)(C)O)c2)o1`
< 100 nM

Which IC50 is listed for `Cc1ccc(-c2noc([C@H]3C[C@@H]3F)n2)cc1NC(=O)c1cnn2cc(-c3cnn(C(C)(C)CO)c3)ccc12` ?
< 100 nM

Dear colleague, I am looking for the recorded IC50 of the following compound: `Cc1ccc(-c2noc([C@H]3C[C@@H]3F)n2)cc1NC(=O)c1cnn2cc(-c3cn(C4CC4)nn3)ccc12`
< 100 nM

Data request, read-out IC50, for `Cc1ccc(-c2noc([C@H]3C[C@@H](OC(F)F)C3)n2)cc1NC(=O)c1cnn2ccc(N3CC4(CCN(CC(F)(F)F)C4)C3)cc12`
100 to 1000 nM

###

Target: Recombinant human c-KIT kinase (Homo sapiens (Human), UniProt P10721)
Experiment: c-KIT kinase chemiluminescence assay (ADP-Glo)
Format: biochemical
Conditions: ATP 50 μM
pIC50: −log10 of the molar value.
parameter measured: pIC50

Param readout= pIC50; system= Recombinant human c-KIT kinase (Homo sapiens (Human), UniProt P10721); entry= `Cc1ccc(-c2noc([C@H]3C[C@@H](OC(F)(F)F)C3)n2)cc1NC(=O)c1cnn2ccc(N3CC4(C3)CC(O)(C(F)(F)F)C4)cc12` ; returns value.
> 7.00

Form field - read-out: pIC50; system: Recombinant human c-KIT kinase (Homo sapiens (Human), UniProt P10721); submitted item: `Cc1sc(-c2noc(C3CN(C(=O)[C@H]4C[C@@H]4F)C3)n2)cc1NC(=O)c1cnn2ccc(N3CC4(C3)CC(O)(C(F)F)C4)cc12`
6.00 to 7.00

Give pIC50 (Recombinant human c-KIT kinase (Homo sapiens (Human), UniProt P10721)) of the following molecule: `Cc1ccc(-c2noc([C@H]3C[C@@H]3F)n2)cc1NC(=O)c1cnn2ccc(-c3cnccn3)cc12`
> 7.00

###

What IC50 was measured for each of the following?
Target: Recombinant human c-KIT kinase (Homo sapiens (Human))
Test: c-KIT kinase chemiluminescence assay (ADP-Glo)
Conditions: ATP 50 μM

Find the recorded IC50 belonging to `Cc1ccc(-c2noc([C@H]3C[C@@H]3F)n2)cc1NC(=O)c1cnn2ccc(N3CCOCC3)cc12` and report it.
< 100 nM

If you can, please state the reported IC50 value of `Cc1ccc(-c2noc([C@H]3C[C@@H]3F)n2)cc1NC(=O)c1cnc(-c2ccc(-c3cnn(C)c3)cc2)o1` .
100 to 1000 nM

Name the reported IC50 value associated with the compound `Cc1ccc(-c2noc([C@H]3C[C@@H]3F)n2)cc1NC(=O)c1cncn1C`
> 1000 nM

Look up IC50 for this compound: `Cc1cc(F)c(-c2noc([C@H]3C[C@@H]3F)n2)cc1NC(=O)c1cnn2ccc(N3CC4(C3)CN(S(C)(=O)=O)C4)cc12`
< 100 nM

Any idea what IC50 was measured for `Cc1ccc(-c2noc([C@H]3C[C@@H]3F)n2)cc1NC(=O)c1cnn2ccc(N3CCC4(COC4)C3)cc12` ?
< 100 nM

Can you share its IC50? I mean this compound: `Cc1ccc(-c2noc([C@H]3C[C@@H]3F)n2)cc1NC(=O)c1cnn2ccc(-c3nn[nH]n3)cc12`
100 to 1000 nM

Sample `Cc1sc(-c2noc(C3CN(C(=O)OC(C)(C)C)C3)n2)cc1NC(=O)c1cnn2ccc(N3CC4(COC4)C3)cc12` — what was its IC50?
> 1000 nM

Hello, the source for this data is patent US20250059174A1, in case you need it.
